Reference for the values: ChEMBL document CHEMBL3039007

- study.target: Solute carrier organic anion transporter family member 1B3 (Homo sapiens)
- Sequence (Q9NPD5 whole entry): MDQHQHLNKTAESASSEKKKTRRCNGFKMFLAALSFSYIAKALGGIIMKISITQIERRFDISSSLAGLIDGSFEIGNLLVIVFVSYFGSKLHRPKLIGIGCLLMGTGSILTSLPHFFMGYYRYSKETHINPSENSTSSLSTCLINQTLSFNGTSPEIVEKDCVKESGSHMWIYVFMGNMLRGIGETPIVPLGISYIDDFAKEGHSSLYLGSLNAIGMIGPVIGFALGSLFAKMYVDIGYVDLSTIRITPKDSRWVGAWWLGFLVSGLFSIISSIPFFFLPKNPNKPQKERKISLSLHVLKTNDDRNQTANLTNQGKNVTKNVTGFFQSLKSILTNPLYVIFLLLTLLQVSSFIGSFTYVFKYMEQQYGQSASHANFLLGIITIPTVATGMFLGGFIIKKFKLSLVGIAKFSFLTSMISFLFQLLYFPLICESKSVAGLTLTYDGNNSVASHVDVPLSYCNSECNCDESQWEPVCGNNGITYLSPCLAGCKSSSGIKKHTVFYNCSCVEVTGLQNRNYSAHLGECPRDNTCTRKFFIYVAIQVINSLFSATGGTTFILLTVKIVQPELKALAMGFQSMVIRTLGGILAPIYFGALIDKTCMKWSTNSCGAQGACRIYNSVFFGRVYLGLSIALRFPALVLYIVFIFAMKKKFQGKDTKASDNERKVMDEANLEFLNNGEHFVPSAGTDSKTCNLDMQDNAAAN
- run.parameters: chinese hamster, cho, 10 µM
Reported values of residual activity for individual entries
measure: residual activity (%)

- CC(=O)Oc1ccc(/C=C/c2cc(OC(C)=O)cc(OC(C)=O)c2)cc1: 143.6
- CC(=O)CC(c1ccccc1)c1c(O)c2ccccc2oc1=O (stereo not given): 66.67
- CNNC.Cl [1,2-DIMETHYLHYDRAZINE HYDROCHLORIDE]: 99.77
- CCCCC/C=C\C/C=C\C/C=C\C/C=C\CCCC(=O)O: 5.402
- CS(=O)(=O)Nc1ccc([N+](=O)[O-])cc1Oc1ccccc1 [NIMESULIDE]: 58.26
- NC(=O)NCC(N)C(=O)O (stereo not given): 110.8
- CCC(=O)OCC(=O)[C@]1(OC(=O)CC)[C@H](C)C[C@H]2[C@@H]3CCC4=CC(=O)C=C[C@]4(C)[C@@]3(F)[C@@H](O)C[C@]21C: 77.45
- COc1ccc(-c2coc3cc(O)cc(O)c3c2=O)cc1: 113.5
- COc1ccc(-c2cc(=O)c3c(O)cc(O[C@H]4O[C@H](CO[C@@H]5O[C@@H](C)[C@H](O)[C@@H](O)[C@H]5O)[C@@H](O)[C@H](O)[C@H]4O)cc3o2)cc1 [BUDDLEOFLAVONOLOSIDE]: 212.4
- CC(=O)O[C@H]1CC[C@]2(C)[C@H]3CC[C@@H]4[C@@H]5CC(C)(C)CC[C@]5(C(=O)O)CC[C@@]4(C)[C@]3(C)CC[C@H]2C1(C)C: 103.7
- CC(=O)OC[C@H]1O[C@@H](Oc2cc(OC(C)=O)c3c(=O)cc(-c4ccc(OC(C)=O)cc4)oc3c2)[C@H](OC(C)=O)[C@@H](OC(C)=O)[C@@H]1OC(C)=O [COSMOSIIN HEXAACETATE]: 48.4
- Cn1c(=O)c2[nH]cnc2n(C)c1=O.O: 72.46
- CN(C)[C@@H]1C(O)=C(C(N)=O)C(=O)[C@@]2(O)C(O)=C3C(=O)c4c(O)cccc4[C@@](C)(O)[C@H]3[C@H](O)[C@@H]12: 95.2
- C=CCCCCCCCCCCC/C=C/C(O)COC(C)=O (stereo not given) [DEHYDROAVOCATIN-1-ACETATE]: 107.3
- O=C1NS(=O)(=O)c2ccccc21: 110.9
- C=C(C)[C@H]1COc2cc3oc(=O)ccc3cc2O1: 103.6
- COC(=O)c1c(C)cc(O)cc1O [METHYL ORSELLINATE]: 98.38
- CN(C)CCc1c[nH]c2ccc(CS(=O)(=O)N3CCCC3)cc12: 94.33
- CN[C@@H]1[C@H](O[C@H]2[C@H](O[C@H]3[C@H](O)[C@@H](O)[C@H](N=C(N)N)[C@@H](O)[C@@H]3N=C(N)N)O[C@@H](C)[C@]2(O)C=O)O[C@@H](CO)[C@H](O)[C@H]1O.CN[C@@H]1[C@H](O[C@H]2[C@H](O[C@H]3[C@H](O)[C@@H](O)[C@H](N=C(N)N)[C@@H](O)[C@@H]3N=C(N)N)O[C@@H](C)[C@]2(O)C=O)O[C@@H](CO)[C@H](O)[C@H]1O.O=S(=O)(O)O.O=S(=O)(O)O.O=S(=O)(O)O [STREPTOMYCIN SULFATE]: 109.2
- C=C1C(=O)O[C@@H]2C[C@@]3(C)CCC[C@H](C)C3=C[C@H]12: 115.2
- O=C(O)c1cc(O)c(=O)c2c(O)c(O)ccc2c1 [7-DESHYDROXYPYROGALLIN-4-CARBOXYLIC ACID]: 69.89
- CCOC(=O)CCCCCCCCCCCCC1C=CCC1 (stereo not given): 92.79
- CC(=O)N[C@@H](CC(=O)N[C@@H](CCC(=O)O)C(=O)O)C(=O)O: 87.85
- COc1c(C(C)C)oc2cc3oc(=O)ccc3cc12: 105.2
- COc1cc2c(cc1OC)C1(O)C(=O)c3ccc(O)c(C(=O)O)c3OC1CO2 (stereo not given): 86.59
